Recorded values, source the Immune Epitope Database (IEDB).

# Target desc: HLA-B*58:01
# Assay summary: IEDB peptide-MHC binding, purified MHC/direct/fluorescence; filed as Kd, often an IC50 or EC50 that approximates it; bounds were set here for any values at or beyond the usual limits of such assays
# Condition: source organism: Rickettsia sibirica
Parameter: Kd

Sequence chain: AIKPITDQF
Result: ≥ 10 µM

----------
# Target desc: HLA-B*27:05
# Assay summary: IEDB peptide-MHC binding, purified MHC/direct/fluorescence; filed as Kd, often an IC50 or EC50 that approximates it; bounds were set here for any values at or beyond the usual limits of such assays
# Condition: source organism: Bacillus anthracis
Parameter: Kd

Sequence chain: PTDYAKPQY
Result: ≥ 20 µM

----------
# Target desc: HLA-A*02:01
# Assay summary: IEDB peptide-MHC binding, purified MHC/direct/fluorescence; filed as Kd, often an IC50 or EC50 that approximates it; bounds were set here for any values at or beyond the usual limits of such assays
# Condition: source organism: Encephalitozoon cuniculi GB-M1

Sequence chain: SPLPITLKY
Target desc: HLA-A*02:01
Kd: ≥ 20 µM

----------
# Target desc: HLA-A*02:03
# Assay summary: IEDB peptide-MHC binding, purified MHC/competitive/fluorescence; filed as Kd, often an IC50 or EC50 that approximates it; bounds were set here for any values at or beyond the usual limits of such assays
# Condition: source organism: Vibrio cholerae 2740-80

Sequence chain: LAVFPAMFW
Target desc: HLA-A*02:03
Kd: ≥ 20 µM

----------
# Target desc: HLA-B*40:01
# Assay summary: IEDB peptide-MHC binding, purified MHC/competitive/radioactivity; filed as Kd, often an IC50 or EC50 that approximates it; bounds were set here for any values at or beyond the usual limits of such assays
# Condition: source organism: Lassa virus Josiah

Sequence chain: YDHALMSII
Kd: ≥ 26.6 µM

----------
# Target desc: HLA-B*15:09
# Assay summary: IEDB peptide-MHC binding, purified MHC/direct/fluorescence; filed as Kd, often an IC50 or EC50 that approximates it; bounds were set here for any values at or beyond the usual limits of such assays
# Condition: source organism: Influenza A virus(A/swine/Shandong/fZC/2003(H9N2))

Sequence chain: YRYTYRCHR
Target desc: HLA-B*15:09
Kd: ≥ 20 µM

----------
# Target desc: HLA-A*02:03
# Assay summary: IEDB peptide-MHC binding, purified MHC/direct/fluorescence; filed as Kd, often an IC50 or EC50 that approximates it; bounds were set here for any values at or beyond the usual limits of such assays
# Condition: source organism: Ebola virus Yambio0403
Parameter: Kd

Sequence chain: ESLLHQASW
Parameter: Kd
Result: ≥ 20 µM

----------
# Target desc: HLA-B*40:01
# Assay summary: IEDB peptide-MHC binding, purified MHC/competitive/radioactivity; filed as Kd, often an IC50 or EC50 that approximates it; bounds were set here for any values at or beyond the usual limits of such assays
# Condition: source organism: Dengue virus 1 Singapore/S275/1990

Sequence chain: SEGIFSPSEL
Kd: 5.6 nM

----------
# Target desc: HLA-A*68:02
# Assay summary: IEDB peptide-MHC binding, purified MHC/direct/fluorescence; filed as Kd, often an IC50 or EC50 that approximates it; bounds were set here for any values at or beyond the usual limits of such assays
# Condition: source organism: Burkholderia mallei
pKd: −log10 of the molar value.

Sequence chain: IQRRGAQFQ
pKd: ≤ 4.70
